biological target: Bcl-2 protein (Homo sapiens, UniProt P10415, DELINS35-91DVEENRTEAPEGTESE, form not given); construct: fused on or other part: Bcl-xL (Q07817) residues 29-44 stand in place of Bcl-2's own unstructured loop 35-91; The C-terminal membrane anchor (208-239) is absent; assay: Bcl-2 fluorescence polarization assay (FPA) binding; conditions: 10 nM Bcl-2 protein, 1 nM fluorescein-labeled BAX peptide, room temperature, read-out: Bcl-2 FPA 11pt Ki
Sequence (P10415 with tags, fused parts or gaps with the stated changes): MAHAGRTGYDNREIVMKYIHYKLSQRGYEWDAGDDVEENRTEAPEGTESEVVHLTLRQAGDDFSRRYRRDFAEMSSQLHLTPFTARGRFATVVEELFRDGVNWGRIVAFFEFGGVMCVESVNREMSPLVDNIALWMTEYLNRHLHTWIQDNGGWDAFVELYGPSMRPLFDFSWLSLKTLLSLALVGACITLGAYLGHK
property.measured: pKi
For clarity, pKi is expressed as the negative log10 of concentration in mol/L.

Below, 2 molecules whose answers are already recorded.
{"columns": ["molecule", "target", "property.measured", "recorded.value"],
 "data": [
  ["C[C@@H]1[C@@H](N(C(=O)c2ccccc2)C2CCN(c3ccc(C(=O)NS(=O)(=O)c4ccc(NCC5CCCCC5)c([N+](=O)[O-])c4)cc3)CC2)C[C@H]2C[C@@H]1C2(C)C [Example 3]", "Bcl-2 protein (Homo sapiens, UniProt P10415, DELINS35-91DVEENRTEAPEGTESE, form not given)", "pKi", 7.19],
  ["C[C@@H]1[C@@H](N(CCCc2ccccc2)C2CCN(c3ccc(C(=O)NS(=O)(=O)c4ccc(NC5CCOCC5)c([N+](=O)[O-])c4)cc3)CC2)C[C@H]2C[C@@H]1C2(C)C [Example 45]", "Bcl-2 protein (Homo sapiens, UniProt P10415, DELINS35-91DVEENRTEAPEGTESE, form not given)", "pKi", 7.10]
]}

Query string: # input molecule: O=C(NS(=O)(=O)c1ccc(NCC2CCCCC2)c([N+](=O)[O-])c1)c1ccc2cc(-c3ccc(O)c(C45CC6CC(CC(C6)C4)C5)c3)ccc2c1 [Example 48] ; wanted: its pKi
Result string: 5.86
